Would you kindly list Kd for each of these binders?
Biological target: T1, NPNA4 peptide (Plasmodium falciparum (isolate 3D7)., not fully specified)
T1 construct: source: synthetic peptide (InnoPep Inc)
T1 chain: NPNANPNANPNANPNA
Assay: BLI
Settings: both partners purified
Ends that are not written are not given here.
All answers are understood in nM, so give the number only.

Record 239R Fab (Fab, V domains shown, also called germline-reverted 239; source: ExpiCHO cells, purified (mAb Select PrismA or Capture Select, SEC)) VH: QVQLVESGGGVVQPGRSLRLSCAASRLTFSSYGMHWVRQTPGKGLEWVAVIWHDGSNKFYADSVKGRFTISRDNSKNTLYLQMNSLRDEDTAIYYCAKDWGGASDRVFDYWGRGTLVIVSS VL: DIQMTQSPSTLSASVGDRVTITCRASQSVSTSLAWYQQKPGKAPNLLIYQASTLYTGVPSRFSGSGSGTEFTLTIGSLQPDDFATYYCQHYNSYSRITFGQGTRLEIK . Reported Kd: 165

Value of Kd reported for the binder 337 Fab (Fab, V domains shown, also called mAb 337; source: ExpiCHO cells, purified (mAb Select PrismA or Capture Select, SEC)) VH: QVQLVESGGGVVQPGRSLRLSCAASGFSFSTYGMHWVRQAPGKGLEWVALIWHDGSKKFYSESVRGRFTISRDNSMDTLYLQMSSLRAEDTAVYYCARDGADYFDSTGGAFDIWGQGTMVIVSS VL: EIVMTQSPATLSVSPGERATLSCRASQSVSSNLAWYQQKPGQAPRLLIYGASTRATGIPARFSGSGSGTEFTLTISSLQSEDFATYYCQQYKTWWTFGQGTKVEIK is 36.9
